Please go through the items and note down their SPOT peptide array binding signal intensity.
Measured target: ScFus1
Procedure text: SPOT peptide array binding signal intensity (averaged, normalized) (arbitrary units (background-subtracted, floor 0; scale differs between SH3 domains)); higher = stronger binding of the SH3 domain to the peptide
Give bare numbers.

[
  {
    "Binder": "NFKRLLPRDPSEKSS",
    "Assay result": 308
  }
]

Your task in this section: give SPOT peptide array binding signal intensity for each listed record.
1. PPPPPPPPPPPLPQS
2. SHRLWLYAAPKRPKT
3. YHSRRHPLALGFKYV

1. 1.5
2. 260
3. 368
